Molecular target: T1, hIL-18Rα ECD-Fc fusion protein (human, UniProt Q13478 22-329)
T1 construct: extracellular domain; captured on Protein A sensor
T1 sequence (looked up): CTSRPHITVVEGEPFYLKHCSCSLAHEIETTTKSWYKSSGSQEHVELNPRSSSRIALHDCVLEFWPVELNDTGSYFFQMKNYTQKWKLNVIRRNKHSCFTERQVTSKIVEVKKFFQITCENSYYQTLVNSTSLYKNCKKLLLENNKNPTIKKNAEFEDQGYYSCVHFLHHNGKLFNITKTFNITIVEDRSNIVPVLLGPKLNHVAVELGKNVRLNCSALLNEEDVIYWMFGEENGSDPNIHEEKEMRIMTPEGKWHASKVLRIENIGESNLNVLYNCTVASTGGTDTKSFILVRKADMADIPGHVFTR
Experiment: BLI (Octet RED96), hIL-18Rα ECD-Fc on Protein A sensor
Decide using koff alone. Strictly below 0.02 s⁻¹: 1. Equal to or above 0.02 s⁻¹: 0.

Lab note: confirm whether the reported koff for this binder is below 0.02 s⁻¹, equality not counting. binder: IL-18 variant polypeptide LM3 (ligand, soluble, E. coli-made) YFPKLRSKLSIIRNLNDQVLFIDQGNRPLFEDMTDSDCRDNAPRTIFIISMYKGSGARGMAVTISVKCEKISTLSCENKIISFKEMNPPDGIKDTKSDIIFFQRSVPGHDNKMQFESSSYEGYFLACEKERDLFKLILKKEDELGDRSIMFTVQNED
0

---
Lab note: confirm whether the reported koff for this binder is below 0.02 s⁻¹, equality not counting. binder: IL-18 variant polypeptide M21 (ligand) YFPKLRSKLSVIRNLNDQVLFIDQGNRPLFEDMTDSDCRDNAPRTIFIISMYKSSSTRGMAVTISVKCEKISTLSCENKIISFKEMNPPDGIKDTKSDIIFFQSSVPGHDNKMQFESSSYEGYFLACEKERDLFKLILKKEDELGDRSIMFTVQNED
0

Lab note: confirm whether the reported koff for this binder is below 0.02 s⁻¹, equality not counting. binder: IL-18 variant polypeptide WM6 (ligand, soluble, E. coli-made) YFDKLKSKLSVIRNLNDQVLFIDQGNRPLFEDMTDSDCRDNAPRTIFIISMYKDSQPRGMAVTISVKCEKISTLSCENKIISFKEMNPPDSIKDTKSDIIFFQRSVPGHDNKMQFESSSYEGYFLACEKERDLFKLILKKEDELGDRSIMFTVQNED
1
